Listed here: items and their measured percent inhibition of viability.
tested on: NK-YS (IL-2 2.5 ng/mL); test: percent inhibition of viability; higher = more inhibition; settings: 72 h; 1 nM;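 further: normalised to DMSO-only wells as negative and benzethonium chloride as positive control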
Result Type: percent inhibition of viability (%)

Compound | Assay System | Result Type | Quantitative Readout
CNc1nc(-c2ccc3c(N)n[nH]c3c2)cc(N2C[C@@H](C(=O)NC3CCCCC3)CC[C@H]2C)n1 (max concentration tested 10000 nM) | NK-YS (IL-2 2.5 ng/mL) | percent inhibition of viability | -0.39
Clc1ccccc1C(c1ccccc1)(c1ccccc1)n1cccn1 [TRAM-34] (max concentration tested 1000 nM) | NK-YS (IL-2 2.5 ng/mL) | percent inhibition of viability | 0.93
COc1cc2c(N3CCN(C(=O)Nc4ccc(OC(C)C)cc4)CC3)ncnc2cc1OCCCN1CCCCC1 [Tandutinib] (max concentration tested 1000 nM) | NK-YS (IL-2 2.5 ng/mL) | percent inhibition of viability | 2.91
